settings: human, in vivo, clearance corrected for bioavailability, controls
test.readout: clearance

Look up clearance: Cc1ncc2n1-c1ccc(Cl)cc1C(c1ccccc1F)=NC2
~1330 mL/min
